- target: Alpha-2A adrenergic receptor (Homo sapiens); further: assay procedure not described here
- Sequence (P08913 whole entry): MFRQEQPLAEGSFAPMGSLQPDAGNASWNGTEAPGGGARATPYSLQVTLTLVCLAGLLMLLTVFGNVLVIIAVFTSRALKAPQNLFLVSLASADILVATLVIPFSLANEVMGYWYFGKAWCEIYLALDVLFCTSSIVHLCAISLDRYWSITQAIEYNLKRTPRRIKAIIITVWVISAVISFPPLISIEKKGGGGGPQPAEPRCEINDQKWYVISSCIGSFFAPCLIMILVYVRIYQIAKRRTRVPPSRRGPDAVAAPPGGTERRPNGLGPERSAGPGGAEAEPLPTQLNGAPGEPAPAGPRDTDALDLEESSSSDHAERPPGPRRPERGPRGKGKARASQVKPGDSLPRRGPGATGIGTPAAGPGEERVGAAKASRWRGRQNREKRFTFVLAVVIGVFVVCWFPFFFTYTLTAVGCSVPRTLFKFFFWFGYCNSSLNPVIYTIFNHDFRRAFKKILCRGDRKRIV
- Type: functional, cell-based
measurement_name: AC50

Example entries begin here.
Looking up COC(=O)N[C@@H](C)CNc1nccc(-c2cn(C(C)C)nc2-c2cc(Cl)cc(NS(C)(=O)=O)c2F)n1 , I see its AC50 listed as > 30 µM

Looking up CCCNC(C)C(=O)Nc1ccccc1C (centres undefined) , I see its AC50 listed as > 30 µM

Looking up C#C[C@]1(O)CC[C@H]2[C@@H]3CCc4cc(OC)ccc4[C@H]3CC[C@@]21C , I see its AC50 listed as > 10 µM

More entries:
Looking up O=C(O)c1ccccc1Nc1cccc(C(F)(F)F)c1 , I see its AC50 listed as > 30 µM
